# experimental_target: cdk4 (Homo sapiens)
# Sequence (P11802 whole entry): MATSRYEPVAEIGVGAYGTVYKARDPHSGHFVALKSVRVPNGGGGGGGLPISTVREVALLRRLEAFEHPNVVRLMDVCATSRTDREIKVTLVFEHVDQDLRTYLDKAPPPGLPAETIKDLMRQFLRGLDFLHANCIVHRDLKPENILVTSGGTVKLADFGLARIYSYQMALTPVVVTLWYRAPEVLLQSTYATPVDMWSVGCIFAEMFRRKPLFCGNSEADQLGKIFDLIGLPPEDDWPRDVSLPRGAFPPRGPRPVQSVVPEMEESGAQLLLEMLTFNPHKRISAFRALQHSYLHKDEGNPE
# Sequence (P24385 whole entry partner): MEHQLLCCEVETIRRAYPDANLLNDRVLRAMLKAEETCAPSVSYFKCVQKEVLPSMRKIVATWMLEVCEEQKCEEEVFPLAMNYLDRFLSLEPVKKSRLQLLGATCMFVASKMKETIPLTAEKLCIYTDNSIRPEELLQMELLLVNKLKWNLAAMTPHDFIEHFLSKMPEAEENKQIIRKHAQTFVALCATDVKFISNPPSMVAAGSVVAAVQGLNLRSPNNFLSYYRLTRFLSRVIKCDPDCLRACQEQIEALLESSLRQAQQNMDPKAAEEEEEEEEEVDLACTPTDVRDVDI
# protocol: In vitro inhibition of cdk4 using a scintillant proximity assay (CDK4 SPA, Ex. C1)
# Format: biochemical
# experimental_conditions: GST-pRb substrate, 33P-ATP, room temperature 30 minutes; read-out: CDK4 SPA (Ex. C1): pIC50 values (converted)
assay_metric: IC50 (nM)
Quick reminder: number only, in nM, skip the unit.

Sample Cn1c(=O)nc2n(C3CCCC3)nc(-c3ccc(-c4ccc(CN5CCN(S(N)(=O)=O)CC5)cc4)o3)nc-2c1=O [Compound 112] ; IC50 observed: 117

Sample CN1CCN(C(=O)COc2ccc(-c3ccc(-c4nc5c(=O)n(C)c(=O)nc-5n(C5CCCC5)n4)o3)cc2)CC1 [Compound 119] ; IC50 observed: 129

Sample COC1CCN(Cc2ccc(-c3ccc(-c4nc5c(=O)n(C)c(=O)nc-5n(C5CCCC5)n4)o3)cc2)CC1 [Compound 132] ; IC50 observed: 78.5

Sample COCCN1CCN(Cc2ccc(-c3ccc(-c4nc5c(=O)n(C)c(=O)nc-5n(C5CCCC5)n4)o3)cc2)CC1 [Compound 133] ; IC50 observed: 112

Sample Cn1c(=O)nc2n(C3CCCC3)nc(-c3ccc(-c4ccc(CO)cc4)o3)nc-2c1=O [Compound 31] ; IC50 observed: 137

Sample Cn1c(=O)nc2n(C3CCCC3)nc(-c3ccc(-c4ccc(CN5CCN(CCOCCO)CC5)cc4)o3)nc-2c1=O [Compound 121] ; IC50 observed: 161

Sample CC(C)n1nc(-c2ccc(-c3ccc(CN(C)CCO)cc3)o2)nc2c(=O)n(C)c(=O)nc1-2 [Compound 87] ; IC50 observed: 80.7

###

# experimental_target: AKT3 (Homo sapiens, UniProt Q9Y243)
# Sequence (Q9Y243 whole entry): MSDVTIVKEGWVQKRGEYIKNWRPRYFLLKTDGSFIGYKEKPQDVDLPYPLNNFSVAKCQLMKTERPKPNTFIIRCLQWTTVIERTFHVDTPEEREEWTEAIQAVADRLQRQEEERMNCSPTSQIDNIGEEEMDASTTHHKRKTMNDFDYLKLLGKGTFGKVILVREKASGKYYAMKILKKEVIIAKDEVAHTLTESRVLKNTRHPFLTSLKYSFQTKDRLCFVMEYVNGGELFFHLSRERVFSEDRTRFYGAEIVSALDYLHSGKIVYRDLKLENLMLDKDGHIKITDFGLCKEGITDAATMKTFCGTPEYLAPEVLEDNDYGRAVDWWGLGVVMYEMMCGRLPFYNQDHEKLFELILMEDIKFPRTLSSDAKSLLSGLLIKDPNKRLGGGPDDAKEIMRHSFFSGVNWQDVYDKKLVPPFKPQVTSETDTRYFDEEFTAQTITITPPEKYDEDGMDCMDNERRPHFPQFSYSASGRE
# protocol: In vitro inhibition of AKT3 using a filter assay (AKT3 pep., Ex. C3)
# Type: biochemical
# experimental_conditions: histone H2B substrate, filter assay, 25° C. 3 hrs; read-out: AKT3 pep. (Ex. C3): pIC50 values (converted)
Simple rule here: IC50 less than 50 nM is t, otherwise f.

Is the reported IC50 for Cn1c(=O)nc2n(C3CCCC3)nc(-c3ccc(-c4ccc(CN5CCN(CCO)CC5)cc4)o3)nc-2c1=O [Compound 106] strictly below 50 nM?
f

Is the reported IC50 for CC(c1ccccc1)n1nc(-c2ccc(-c3cccc(Cl)c3)o2)nc2c(=O)n(C)c(=O)nc1-2 (centres unmarked) [Compound 67] strictly below 50 nM?
f

Is the reported IC50 for CC(C)n1nc(-c2ccc(-c3ccc(CN4CCOCC4)cc3)o2)nc2c(=O)n(C)c(=O)nc1-2 [Compound 78] strictly below 50 nM?
f

Is the reported IC50 for Cn1c(=O)nc2n(C3CCCC3)nc(-c3ccc(-c4ccc(S(=O)(=O)N5CCOCC5)cc4)o3)nc-2c1=O [Compound 93] strictly below 50 nM?
f

Is the reported IC50 for Cn1c(=O)nc2n(C3CCCC3)nc(-c3ccc(-c4ccc(CN(CCO)CCO)cc4)o3)nc-2c1=O [Compound 134] strictly below 50 nM?
f

Is the reported IC50 for Cn1c(=O)nc2n(C3CCCC3)nc(-c3ccc(-c4ccc(CN5CCOCC5)cc4)o3)nc-2c1=O [Compound 94] strictly below 50 nM?
f

Is the reported IC50 for Cn1c(=O)nc2n(C3CCCC3)nc(-c3ccc(-c4ccc(CN5CCC(O)CC5)cc4)o3)nc-2c1=O [Compound 103] strictly below 50 nM?
f

Is the reported IC50 for Cn1nc(-c2ccc(-c3cccc(CN4CCOCC4)c3)o2)nc2c(=O)n(C)c(=O)nc1-2 [Compound 1] strictly below 50 nM?
t

Is the reported IC50 for CN(CCO)Cc1ccc(-c2ccc(-c3nc4c(=O)n(C)c(=O)nc-4n(C4CCCC4)n3)o2)cc1 [Compound 107] strictly below 50 nM?
t

Is the reported IC50 for Cn1c(=O)nc2n(C3CCCC3)nc(-c3ccc(-c4ccc(CO)cc4)o3)nc-2c1=O [Compound 31] strictly below 50 nM?
t

Is the reported IC50 for Cn1c(=O)nc2n(C3CCCC3)nc(-c3ccc(-c4ccc(CN5CCN(CCOCCO)CC5)cc4)o3)nc-2c1=O [Compound 121] strictly below 50 nM?
f

Is the reported IC50 for Cn1c(=O)nc2n(C3CCCC3)nc(-c3ccc(-c4ccc(CN5CCCC5)cc4)o3)nc-2c1=O [Compound 131] strictly below 50 nM?
f

Is the reported IC50 for COC1CCN(Cc2ccc(-c3ccc(-c4nc5c(=O)n(C)c(=O)nc-5n(C5CCCC5)n4)o3)cc2)CC1 [Compound 132] strictly below 50 nM?
t

Is the reported IC50 for COCCN1CCN(Cc2ccc(-c3ccc(-c4nc5c(=O)n(C)c(=O)nc-5n(C5CCCC5)n4)o3)cc2)CC1 [Compound 133] strictly below 50 nM?
f

Is the reported IC50 for Cn1c(=O)nc2n(C3CCCC3)nc(-c3ccc(-c4ccc(CN5CCN(S(N)(=O)=O)CC5)cc4)o3)nc-2c1=O [Compound 112] strictly below 50 nM?
f

Is the reported IC50 for CC(C)n1nc(-c2ccc(-c3ccc(CN(C)CCO)cc3)o2)nc2c(=O)n(C)c(=O)nc1-2 [Compound 87] strictly below 50 nM?
f

Is the reported IC50 for CN1CCN(C(=O)COc2ccc(-c3ccc(-c4nc5c(=O)n(C)c(=O)nc-5n(C5CCCC5)n4)o3)cc2)CC1 [Compound 119] strictly below 50 nM?
f

Is the reported IC50 for Cn1c(=O)nc2n(C3CCCC3)nc(-c3ccc(-c4ccc(CNCc5cccnc5)cc4)o3)nc-2c1=O [Compound 122] strictly below 50 nM?
t

Is the reported IC50 for Cn1c(=O)nc2n(C3CCCC3)nc(-c3ccc(-c4ccc(CN5CCNCC5)cc4)o3)nc-2c1=O [Compound 105] strictly below 50 nM?
f

Is the reported IC50 for CONCc1ccc(-c2ccc(-c3nc4c(=O)n(C)c(=O)nc-4n(C4CCCC4)n3)o2)cc1 [Compound 115] strictly below 50 nM?
t

Is the reported IC50 for Cn1c(=O)nc2n(C3CCNCC3)nc(-c3ccc(-c4cccc(Cl)c4)o3)nc-2c1=O [Compound 96] strictly below 50 nM?
f

Is the reported IC50 for Cn1c(=O)nc2n(C3CCN(S(N)(=O)=O)CC3)nc(-c3ccc(-c4cccc(Cl)c4)o3)nc-2c1=O [Compound 114] strictly below 50 nM?
t

Is the reported IC50 for Cn1c(=O)nc2n(C3CCCC3)nc(-c3ccc(-c4ccc(CNCCO)cc4)o3)nc-2c1=O [Compound 113] strictly below 50 nM?
t

Every entry's value here was drawn from patent US7241763B2.
